Here, each record is paired with measured pIC50 data.
biological target: Tyrosine-protein kinase Tec (Homo sapiens, UniProt P42680); assay: Lanthscreen Eu Kinase Binding Assay : Lanthscreen Eu Kinase Binding assay […] is performed as described above for BTK except that 1 nM human recombinant full length TEC (His-tagged) kinase and 1 nM Alexa Fluor647-labeled Kinase Tracer #178 were used instead.Representative compounds of the present invention are assessed for inhibition of BTK, BMX, and TXK measuring phosphorylation of a …
Sequence (P42680 whole entry): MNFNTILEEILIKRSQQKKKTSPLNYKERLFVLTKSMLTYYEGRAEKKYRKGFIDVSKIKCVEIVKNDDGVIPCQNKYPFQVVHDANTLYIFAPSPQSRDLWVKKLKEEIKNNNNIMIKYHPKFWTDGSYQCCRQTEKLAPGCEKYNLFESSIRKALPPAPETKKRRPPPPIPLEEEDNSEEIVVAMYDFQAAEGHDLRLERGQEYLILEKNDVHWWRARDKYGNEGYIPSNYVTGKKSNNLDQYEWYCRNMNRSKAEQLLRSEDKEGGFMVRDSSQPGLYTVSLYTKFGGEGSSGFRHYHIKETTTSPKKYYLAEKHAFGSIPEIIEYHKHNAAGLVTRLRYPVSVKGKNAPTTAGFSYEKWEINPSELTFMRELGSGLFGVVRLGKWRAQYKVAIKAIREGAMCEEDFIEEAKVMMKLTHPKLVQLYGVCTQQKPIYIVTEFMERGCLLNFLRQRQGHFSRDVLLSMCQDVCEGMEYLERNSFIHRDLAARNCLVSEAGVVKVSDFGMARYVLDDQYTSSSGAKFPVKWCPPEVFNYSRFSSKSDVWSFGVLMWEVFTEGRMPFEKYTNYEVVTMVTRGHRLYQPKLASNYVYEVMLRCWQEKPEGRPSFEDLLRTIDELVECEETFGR
# log scale: pIC50 equals minus log10 of the concentration in mol/L

// lookup pIC50 for CC#CC(=O)N1CC[C@]2(C1)C[C@H](n1nc(-c3cnn(Cc4cc(C(F)(F)F)ccc4OC)c3)c(C(N)=O)c1N)C2
5.92

Another molecule to look at: CC#CC(=O)N1CC[C@]2(C1)C[C@H](n1nc(-c3cnn(Cc4cc(C(F)(F)F)ccc4Cl)c3)c(C(N)=O)c1N)C2
6.89

***
// lookup pIC50 for CC#CC(=O)N1CC[C@]2(C1)C[C@H](n1nc(-c3cnn(Cc4ccc(Cl)c(C(F)(F)F)c4)c3)c(C(N)=O)c1N)C2
7.42

Another molecule to look at: CC#CC(=O)N1CC[C@]2(C1)C[C@H](n1nc(-c3cnn(Cc4cccc(C(F)(F)F)c4Cl)c3)c(C(N)=O)c1N)C2
7.35
